Measured pEC50, listed per entry for reference.
target: T1, Western Reserve B5 on cells infected with VVddeGFP Western Reserve virus (Vaccinia virus, Western Reserve strain, UniProt Q01227 18-317); experiment: flow cytometry, SKOV3 cells infected with WR VV
T1 construct: also called VV B5; WR
Friendly reminder that pEC50 comes from taking -log10 of the concentration in mol/L.

{"columns": ["Binder", "pEC50"],
 "data": [
  ["A048-H3L2 (antibody, V domains shown) VH: EVQLLESGGGLVQPGGSLRLSCAASGFSFSSSYYMCWVRQAPGKGLEWIACIYTSSGSAYYADSVKGRFTISRDNSKNTLYLQMNSLRAEDTAVYYCVRNAVGSSYYLYLWGQGTLVTVSS VL: AQVLTQSPSTLSASVGDRVTITCQASQSVAGNNYLSWYQQKPGKAPKLLIYSVSTLASGVPSRFSGSGSGTEFTLTISSLQPDDFATYYCQGYYNDGIWAFGQGTKVEIK", 9.17]
]}

Consider the record given below.
## Input pEC50 lookup needed for A048-H1L2 (antibody, V domains shown) VH: EVQLLESGGGLVQPGGSLRLSCAASGFSFSSSYYMCWVRQAPGKGLEWIACIYTSSGSAYYANWAKGRFTISRDNSKNTLYLQMNSLRAEDTAVYYCVRNAVGSSYYLYLWGQGTLVTVSS VL: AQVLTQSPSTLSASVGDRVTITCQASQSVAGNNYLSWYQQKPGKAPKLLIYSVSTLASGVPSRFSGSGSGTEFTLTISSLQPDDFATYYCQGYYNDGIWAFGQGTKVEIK , thanks.
## Output 9.12
